- Protocol details: Apparent permeability from apical to basolateral side of human Caco-2 cells at 26.5 uM in donor chamber after 3 hrs
- Type: ADME, cell-based
- Assay conditions: read-out: permeability
Assay readout: Papp A→B at 3 h, 26.5 µM (×10⁻⁶ cm/s)
Numeric answer only, unit ×10⁻⁶ cm/s assumed.

For the molecule `CC(C)[C@@H](N)C(=O)NCCCCCC(=O)O[C@H](CN1C[C@H]2CCCC[C@H]2C[C@H]1C(=O)NC(C)(C)C)[C@H](Cc1ccccc1)NC(=O)[C@H](CC(N)=O)NC(=O)c1ccc2ccccc2n1.O=C(O)C(F)(F)F.O=C(O)C(F)(F)F.O=C(O)C(F)(F)F` , give its reported Papp A→B at 3 h, 26.5 µM.
0.58
